Target: T1, E276A
T1 construct: % monomer 86.14; also called MICA*008.mIgG2a E276A
T1 chain: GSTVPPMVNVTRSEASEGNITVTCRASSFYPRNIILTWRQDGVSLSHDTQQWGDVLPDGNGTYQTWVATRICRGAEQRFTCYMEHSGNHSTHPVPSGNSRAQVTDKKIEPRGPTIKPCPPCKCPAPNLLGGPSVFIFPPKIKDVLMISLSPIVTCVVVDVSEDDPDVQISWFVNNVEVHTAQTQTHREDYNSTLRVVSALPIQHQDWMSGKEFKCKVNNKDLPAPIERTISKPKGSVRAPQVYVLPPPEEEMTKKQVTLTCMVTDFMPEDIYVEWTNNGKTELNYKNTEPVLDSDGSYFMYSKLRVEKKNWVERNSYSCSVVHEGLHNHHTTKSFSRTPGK
Test: SPR, Fab over captured MICA*008.mIgG2a Ala variant; KD relative to wild type
reported-endpoint: fold-decrease in affinity
Respond using a number only.

Problem: Sample 7D4.6 Fab (Fab, V domains shown) VH: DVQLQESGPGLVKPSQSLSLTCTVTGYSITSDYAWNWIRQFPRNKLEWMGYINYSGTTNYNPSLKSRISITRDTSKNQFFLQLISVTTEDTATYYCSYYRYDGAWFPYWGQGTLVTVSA VL: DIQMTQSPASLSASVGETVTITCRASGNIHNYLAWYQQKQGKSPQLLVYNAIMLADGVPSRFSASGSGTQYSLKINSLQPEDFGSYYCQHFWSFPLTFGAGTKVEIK — what was its fold-decrease in affinity?
Solution: 0.7

These entries and their values trace back to patent US20200055939A1.
